Reference for the values: paper PMC9699003

Would you mind telling me the reported early apoptotic cells of each entry?
- Test system: SW480 cells
- Experiment Summary: Apoptosis assay (annexin V-FITC/PI, flow cytometry)
- Study Conditions: SW480, 24 h, 1 µM, mean ± SD
Numbers only, in %.

1. CC1=C([O-])C([O-])(n2cccn2)c2ccccc2C1=O.[Ru+2].c1ccc(-c2ccccc2)cc1 (racemic) :: 1.0
2. CC1=C([O-])C([O-])(n2cccn2)c2ccccc2C1=O.Cc1ccccc1.[Ru+2] (racemic) :: 1.0
3. CC1=C([O-])C([O-])(n2cccn2)c2ccccc2C1=O.Cc1c(C)c(C)c(C)c(C)c1C.[Ru+2] (stereo not drawn) :: 1.1
4. CC1=C([O-])C([O-])(n2cccn2)c2ccccc2C1=O.[Ru+2].c1ccccc1 (racemic) :: 1.1
5. CC1=C([O-])C([O-])(n2cccn2)c2ccccc2C1=O.[Ru+2].c1ccc2c(c1)CCC2 (racemic) :: 1.1

// switching to the query molecule
*Q* Please report the recorded early apoptotic cells for CC1=C([O-])C([O-])(n2cccn2)c2ccccc2C1=O.Cc1ccc(C(C)C)cc1.[Ru+2] (racemic) .
*A* 1.3

* * *

- Tested on: SW480 cells
- Experiment Summary: Apoptosis assay (annexin V-FITC/PI, flow cytometry)
- Study Conditions: SW480, 24 h, 1 µM, mean ± SD
Classify by measured necrotic cells: class 1 if it is equal to or exceeds 1%, class 0 if it is smaller.

1. CC1=C([O-])C([O-])(n2cccn2)c2ccccc2C1=O.[Ru+2].c1ccccc1 (racemic) :: class 1
2. CC1=C([O-])C([O-])(n2cccn2)c2ccccc2C1=O.[Ru+2].c1ccc(-c2ccccc2)cc1 (racemic) :: class 0
3. CC1=C([O-])C([O-])(n2cccn2)c2ccccc2C1=O.Cc1ccc(C(C)C)cc1.[Ru+2] (racemic) :: class 1

Let us examine a further case.
*Q* necrotic cells >= 1% for CC1=C([O-])C([O-])(n2cccn2)c2ccccc2C1=O.[Ru+2].c1ccc2c(c1)CCC2 (racemic) ?
*A* class 0

* * *

- Test system: SW480 cells
- Experiment Summary: Cellular ruthenium accumulation (ICP-MS)
- Type: cell-based, human
- Study Conditions: SW480, 2 h incubation, 37 °C, 2 µM
Classify by measured Ru [102]/cell (cellular accumulation): rule met if it is equal to or exceeds 40 fg, rule not met if it is smaller.

Example results:
1) CC1=C([O-])C([O-])(n2cccn2)c2ccccc2C1=O.Cc1c(C)c(C)c(C)c(C)c1C.[Ru+2] (stereo not drawn) [Compound 6] :: rule met
2) CC1=C([O-])C([O-])(n2cccn2)c2ccccc2C1=O.Cc1ccccc1.[Ru+2] (racemic) [Compound 3] :: rule not met
3) CC1=C([O-])C([O-])(n2cccn2)c2ccccc2C1=O.[Ru+2].c1ccccc1 (racemic) [Compound 2] :: rule not met

*Q* Ru [102]/cell (cellular accumulation) >= 40 fg for CC1=C([O-])C([O-])(n2cccn2)c2ccccc2C1=O.[Ru+2].c1ccc2c(c1)CCC2 (racemic) [Compound 4] ?
*A* rule met

*Q* Please do the same for CC1=C([O-])C([O-])(n2cccn2)c2ccccc2C1=O.Cc1ccc(C(C)C)cc1.[Ru+2] (racemic) [Compound 1] as well.
*A* rule met

*Q* Please do the same for CC1=C([O-])C([O-])(n2cccn2)c2ccccc2C1=O.[Ru+2].c1ccc(-c2ccccc2)cc1 (racemic) [Compound 5] as well.
*A* rule met

* * *

Would you mind telling me the reported pIC50 of each entry?
- System: A549 non-small cell lung cancer cells
- Experiment Summary: MTT assay (cytotoxicity)
- Format: cell-based, human
- Study Conditions: 24 h exposure
Numbers only, as −log10 of the molar value.

1. CC1=C([O-])C([O-])(n2cccn2)c2ccccc2C1=O.[Ru+2].c1ccc(-c2ccccc2)cc1 (racemic) [Compound 5] :: 5.37
2. CC1=C([O-])C([O-])(n2cccn2)c2ccccc2C1=O.Cc1ccc(C(C)C)cc1.[Ru+2] (racemic) [Compound 1] :: 5.42
3. CC1=C([O-])C([O-])(n2cccn2)c2ccccc2C1=O.[Ru+2].c1ccc2c(c1)CCC2 (racemic) [Compound 4] :: 3.92

// switching to the query molecule
*Q* Please report the recorded pIC50 for CC1=C([O-])C([O-])(n2cccn2)c2ccccc2C1=O.Cc1c(C)c(C)c(C)c(C)c1C.[Ru+2] (stereo not drawn) [Compound 6] .
*A* 4.42

* * *

Would you mind telling me the reported pIC50 of each entry?
- System: CH1/PA-1 ovarian teratocarcinoma cells
- Experiment Summary: MTT assay (cytotoxicity)
- Type: cell-based, human
- Study Conditions: CH1/PA-1, MTT, 24 h exposure
Numbers only, as −log10 of the molar value.

Here is how some compounds turned out for pIC50.
1) CC1=C([O-])C([O-])(n2cccn2)c2ccccc2C1=O.Cc1ccc(C(C)C)cc1.[Ru+2] (racemic) [Compound 1] :: 4.23
2) CC1=C([O-])C([O-])(n2cccn2)c2ccccc2C1=O.[Ru+2].c1ccccc1 (racemic) [Compound 2] :: 3.77
3) CC1=C([O-])C([O-])(n2cccn2)c2ccccc2C1=O.Cc1ccccc1.[Ru+2] (racemic) [Compound 3] :: 3.92
4) CC1=C([O-])C([O-])(n2cccn2)c2ccccc2C1=O.[Ru+2].c1ccc2c(c1)CCC2 (racemic) [Compound 4] :: 3.84
5) CC1=C([O-])C([O-])(n2cccn2)c2ccccc2C1=O.Cc1c(C)c(C)c(C)c(C)c1C.[Ru+2] (stereo not drawn) [Compound 6] :: 4.24

// switching to the query compound
*Q* Please report the recorded pIC50 for CC1=C([O-])C([O-])(n2cccn2)c2ccccc2C1=O.[Ru+2].c1ccc(-c2ccccc2)cc1 (racemic) [Compound 5] .
*A* 4.38

* * *

- System: SW480 cells
- Experiment Summary: Apoptosis assay (annexin V-FITC/PI, flow cytometry)
- Study Conditions: SW480, 24 h, 10 µM, mean ± SD
Would you mind telling me the reported viable cells of each entry?
Numbers only, in %.

Parameter requested: viable cells. Apply to each item below.
1. CC1=C([O-])C([O-])(n2cccn2)c2ccccc2C1=O.Cc1ccccc1.[Ru+2] (racemic)
2. CC1=C([O-])C([O-])(n2cccn2)c2ccccc2C1=O.[Ru+2].c1ccccc1 (racemic)
3. CC1=C([O-])C([O-])(n2cccn2)c2ccccc2C1=O.[Ru+2].c1ccc(-c2ccccc2)cc1 (racemic)
4. CC1=C([O-])C([O-])(n2cccn2)c2ccccc2C1=O.Cc1ccc(C(C)C)cc1.[Ru+2] (racemic)
5. CC1=C([O-])C([O-])(n2cccn2)c2ccccc2C1=O.Cc1c(C)c(C)c(C)c(C)c1C.[Ru+2] (stereo not drawn)
6. CC1=C([O-])C([O-])(n2cccn2)c2ccccc2C1=O.[Ru+2].c1ccc2c(c1)CCC2 (racemic)

*A*
1: 97; 2: 96; 3: 29; 4: 13; 5: 94; 6: 87

* * *

- System: SW480 cells
- Experiment Summary: Apoptosis assay (annexin V-FITC/PI, flow cytometry)
- Study Conditions: SW480, 24 h, 0.1 µM, mean ± SD
Would you mind telling me the reported viable cells of each entry?

Here is how some compounds turned out for viable cells.
1) CC1=C([O-])C([O-])(n2cccn2)c2ccccc2C1=O.[Ru+2].c1ccc(-c2ccccc2)cc1 (racemic) [Compound 5] :: 93 ± 4%
2) CC1=C([O-])C([O-])(n2cccn2)c2ccccc2C1=O.Cc1c(C)c(C)c(C)c(C)c1C.[Ru+2] (stereo not shown) [Compound 6] :: 77 ± 29%
3) CC1=C([O-])C([O-])(n2cccn2)c2ccccc2C1=O.[Ru+2].c1ccc2c(c1)CCC2 (racemic) [Compound 4] :: 95 ± 2%

// switching to the query compound
*Q* Tell me reported viable cells for CC1=C([O-])C([O-])(n2cccn2)c2ccccc2C1=O.Cc1ccc(C(C)C)cc1.[Ru+2] (racemic) [Compound 1] , tested with SW480 cells.
*A* 92 ± 6%

* * *

- Test system: CH1/PA-1 cells
- Experiment Summary: Cell cycle distribution (PI staining, flow cytometry)
- Type: cell-based, human
- Study Conditions: CH1/PA-1, 24 h, 200 µM
Attribute Measured: Cells in G2/M phase (%)
Numbers only, in %.

Here is how some molecules turned out for Cells in G2/M phase.
1. CC1=C([O-])C([O-])(n2cccn2)c2ccccc2C1=O.Cc1ccccc1.[Ru+2] (racemic) :: 40.3
2. CC1=C(O)C(=O)c2ccccc2C1=O [L, 2-Hydroxy-3-methyl-1,4-naphthoquinone] :: 16.8
3. CC1=C([O-])C([O-])(n2cccn2)c2ccccc2C1=O.[Ru+2].c1ccccc1 (racemic) :: 33.0

// switching to the query molecule
*Q* Please report the recorded Cells in G2/M phase for CC1=C([O-])C([O-])(n2cccn2)c2ccccc2C1=O.[Ru+2].c1ccc2c(c1)CCC2 (racemic) .
*A* 40.0

* * *

- System: SW480 cells
- Experiment Summary: Apoptosis assay (annexin V-FITC/PI, flow cytometry)
- Study Conditions: SW480, 24 h, 1 µM, mean ± SD
Attribute Measured: viable cells (%)
Numbers only, in %.

Here is how some compounds turned out for viable cells.
1. CC1=C([O-])C([O-])(n2cccn2)c2ccccc2C1=O.Cc1ccc(C(C)C)cc1.[Ru+2] (racemic) :: 93
2. CC1=C([O-])C([O-])(n2cccn2)c2ccccc2C1=O.[Ru+2].c1ccccc1 (racemic) :: 95
3. CC1=C([O-])C([O-])(n2cccn2)c2ccccc2C1=O.[Ru+2].c1ccc(-c2ccccc2)cc1 (racemic) :: 95
4. CC1=C([O-])C([O-])(n2cccn2)c2ccccc2C1=O.Cc1ccccc1.[Ru+2] (racemic) :: 96
5. CC1=C([O-])C([O-])(n2cccn2)c2ccccc2C1=O.[Ru+2].c1ccc2c(c1)CCC2 (racemic) :: 96

// switching to the query compound
*Q* Please report the recorded viable cells for CC1=C([O-])C([O-])(n2cccn2)c2ccccc2C1=O.Cc1c(C)c(C)c(C)c(C)c1C.[Ru+2] (stereo not drawn) .
*A* 96
